# TEST_METHOD_NOTES: PAMPA (parallel artificial membrane permeability assay)
# Format: in vitro ADME
# EXPERIMENTAL_CONTEXT: PAMPA; membrane permeation rate (Pe); 50 mM MOPSO buffer pH 6.5 with 5.0% glycocholic acid, 37° C., 18 hours; read-out: iPAMPA Pe
# Protocol: 4 μL of a phospholipid-organic solvent solution composed of 10% (w/v) of egg lecithin, 0.5% (w/v) of cholesterol and dodecane (all purchased from Fluka) was added to a Millipore 96-well membrane filter (hydrophobic PVDF (polyvinylidene difluoride), pore size 0.45 microm) (purchased from Millipore Japan) to make an artificial phospholipid membrane. […]
Starred links: 1 amine or outer side, 2 acyl side, 3 side chain; linkers in the order of their positions; H or OH if unused. Positions of bridges follow the written chain, without caps; N, C: chain ends. Non-standard residues stand in square brackets, D forms with d. Residues, ends and D or L forms follow the SMILES beside them. *: point of attachment. NMeF = CN[C@@H](Cc1ccccc1)C(=O)O; NMeI = CC[C@H](C)[C@H](NC)C(=O)O; NMeβAla = CN(CCC(=O)[*:2])[*:1]; NMeL = CN[C@@H](CC(C)C)C(=O)O; NMeV = CN[C@H](C(=O)O)C(C)C; NMeA = CN[C@@H](C)C(=O)O; Piperidide = C1CCN(*)CC1; NPrGly = CCCNCC(=O)O; tBu = CC(C)(C)*
TEST_READOUT: Papp at 18 hours, 50 µM (×10⁻⁶ cm/s)
Numeric answer only, unit ×10⁻⁶ cm/s assumed.

Sample records with Papp at 18 hours, 50 µM:
{"COMPOUND": "CC[C@H](C)[C@@H]1NC(=O)[C@H](Cc2ccccc2)N(C)C(=O)[C@H](Cc2ccccc2)NC(=O)[C@H](C(C)C)N(C)C(=O)[C@H](CC(C)C)N(C)C(=O)[C@H](CC(C)C)NC(=O)[C@@H](C)NC(=O)C[C@@H](C(=O)N2CCCCC2)NC(=O)[C@H]([C@@H](C)O)NC(=O)[C@H](C)NC(=O)[C@H](C)N(C)C1=O [DP-226] ([dA]L[NMeL][NMeV]F[NMeF]I[NMeA]ATD-Piperidide; lactam N-11)", "VALUE_UNIT": "×10⁻⁶ cm/s", "NUMERIC_RESULT": 32}
{"COMPOUND": "CCCN1CC(=O)N(C)[C@@H](CC(C)C)C(=O)N[C@@H]([C@@H](C)O)C(=O)N(C)[C@@H](C)C(=O)N(C)[C@@H](CC(C)C)C(=O)N(C)[C@@H]([C@@H](C)CC)C(=O)N[C@@H](COC(C)(C)C)C(=O)N[C@H](C(=O)N2CCCCC2)CC(=O)N(C)[C@@H](C)C(=O)N(C)[C@@H](Cc2ccccc2)C1=O [DP-540] ([NMeA][NMeF][NPrGly][NMeL]T[NMeA][NMeL][NMeI]S(tBu)D-Piperidide; lactam N-10)", "VALUE_UNIT": "×10⁻⁶ cm/s", "NUMERIC_RESULT": 36}

--- query ---
Qu. Supply recorded Papp at 18 hours, 50 µM for CC(C)C[C@H]1C(=O)N[C@@H](COC(C)(C)C)C(=O)N(C)[C@@H](Cc2ccccc2)C(=O)N(C)[C@@H](CC(C)C)C(=O)N[C@H](C(=O)N2CCCCC2)CC(=O)N(C)CCC(=O)N[C@@H]([C@@H](C)O)C(=O)N1C [DP-746] ([NMeβAla]T[NMeL]S(tBu)[NMeF][NMeL]D-Piperidide; lactam N-7) here.
Ans. 47

Value source: patent US9409952B2
